Recorded values, source paper PMC10791089.

- System: VERO-E6, Caco-2, PK-15, and A549 cells
- protocol: Cell viability MTT assay, averaged over screened cell lines
- protocolConditions: concentration causing >40% reduction in number of viable cells, 72 h, 0.5-30 µM, n/o = no cytotoxic effect observed within the concentration range
recordedMetric: CTE Cell viability MTT assay

Solved entries (count: 5):
- molecule: "CC(C)C[C@H](NC(=O)OC1C/C(=C\\c2ccc([N+](=O)[O-])cc2)C(=O)/C(=C/c2ccc([N+](=O)[O-])cc2)C1)C(N)=O (stereo partly drawn) [Compound T120]"
  CTE Cell viability MTT assay: ">10.0 µM"
- molecule: "O=C1/C(=C/c2ccc([N+](=O)[O-])cc2)CNC/C1=C\\c1ccc([N+](=O)[O-])cc1 [RA-9, reference compound]"
  CTE Cell viability MTT assay: ">30.0 µM"
- molecule: "NC(=O)[C@H](Cc1ccccc1)NC(=O)OC1C/C(=C\\c2ccc([N+](=O)[O-])cc2)C(=O)/C(=C/c2ccc([N+](=O)[O-])cc2)C1 (stereo partly drawn) [Compound T121]"
  CTE Cell viability MTT assay: ">10.0 to 15.0 µM"
- molecule: "NCCCNC(=O)OC1C/C(=C\\c2ccc([N+](=O)[O-])cc2)C(O)/C(=C/c2ccc([N+](=O)[O-])cc2)C1 (stereo not drawn) [Compound T122]"
  CTE Cell viability MTT assay: ">30.0 µM"
- molecule: "N#CSc1cc(SC#N)c(N)nc1N [Compound C4, PR-619, reference compound]"
  CTE Cell viability MTT assay: ">10.0 µM"

Please look at the items below and tell me CTE Cell viability MTT assay for each one, in order.
1. CCC(CC)COC(=O)[C@H](C)N[P@](=O)(OC[C@H]1O[C@@](C#N)(c2ccc3c(N)ncnn23)[C@H](O)[C@@H]1O)Oc1ccccc1 [Compound C8, Remdesivir, reference compound]
2. CC(C)C[C@H](N)C(=O)NCCCNC(=O)OC1C/C(=C\c2ccc([N+](=O)[O-])cc2)C(=O)/C(=C/c2ccc([N+](=O)[O-])cc2)C1 (stereo partly drawn) [Compound T124]
3. NCCCNC(=O)OC1C/C(=C\c2ccc([N+](=O)[O-])cc2)C(=O)/C(=C/c2ccc([N+](=O)[O-])cc2)C1 (stereo not drawn) [Compound T98]
4. O=C1/C(=C/c2ccc([N+](=O)[O-])cc2)CC(O)C/C1=C\c1ccc([N+](=O)[O-])cc1 (stereo not drawn) [Compound T97]

1: n/o; 2: >30.0 µM; 3: >15.0 to 30.0 µM; 4: >5.0 µM

====

- measuredTarget: SARS-CoV-2 M^pro (Severe acute respiratory syndrome coronavirus 2)
- protocol: biochemical
recordedMetric: IC50

Solved entries (count: 5):
- compound: "NCCCNC(=O)OC1C/C(=C\\c2ccc([N+](=O)[O-])cc2)C(=O)/C(=C/c2ccc([N+](=O)[O-])cc2)C1 (centres unmarked)"
  endpointValue: "> 100 µM"
- compound: "CC(C)(C)OC(=O)NCCCC[C@H](NC(=O)OC1C/C(=C\\c2ccc([N+](=O)[O-])cc2)C(=O)/C(=C/c2ccc([N+](=O)[O-])cc2)C1)C(=O)O (some centres unmarked)"
  endpointValue: "> 100 µM"
- compound: "NCCCNC(=O)OC1C/C(=C\\c2ccc([N+](=O)[O-])cc2)C(O)/C(=C/c2ccc([N+](=O)[O-])cc2)C1 (centres unmarked)"
  endpointValue: "> 100 µM"
- compound: "CC(C)C[C@H](N)C(=O)NCCCNC(=O)OC1C/C(=C\\c2ccc([N+](=O)[O-])cc2)C(=O)/C(=C/c2ccc([N+](=O)[O-])cc2)C1 (some centres unmarked)"
  endpointValue: "> 100 µM"
- compound: "CC(C)C[C@H](NC(=O)OC1C/C(=C\\c2ccc([N+](=O)[O-])cc2)C(=O)/C(=C/c2ccc([N+](=O)[O-])cc2)C1)C(N)=O (some centres unmarked)"
  endpointValue: "> 100 µM"

Please look at the items below and tell me IC50 for each one, in order.
1. NC(=O)[C@H](Cc1ccccc1)NC(=O)OC1C/C(=C\c2ccc([N+](=O)[O-])cc2)C(=O)/C(=C/c2ccc([N+](=O)[O-])cc2)C1 (some centres unmarked)
2. O=C1/C(=C/c2ccc([N+](=O)[O-])cc2)CC(O)C/C1=C\c1ccc([N+](=O)[O-])cc1 (centres unmarked)
3. O=[N+]([O-])c1ccc(/C=C2\CC(O)C/C(=C\c3ccc([N+](=O)[O-])cc3)C2O)cc1 (centres unmarked)

1: > 100 µM; 2: > 100 µM; 3: > 100 µM
